Conditions: in isobutanol, 298.15 K
observable: solubility (mole fraction)
# print the numeric value only

Given the entry `CC(C)C(=O)Nc1ccc([N+](=O)[O-])c(C(F)(F)F)c1` , report its measured solubility (mole fraction).
0.0776

###

Conditions: in acetonitrile, 283.15 K
observable: solubility (mole fraction)
# print the numeric value only

Given the entry `CC(C)C(=O)Nc1ccc([N+](=O)[O-])c(C(F)(F)F)c1` , report its measured solubility (mole fraction).
0.0711

###

Conditions: in acetonitrile, 293.15 K
observable: solubility (mole fraction)
# print the numeric value only

Given the entry `CC(C)C(=O)Nc1ccc([N+](=O)[O-])c(C(F)(F)F)c1` , report its measured solubility (mole fraction).
0.119

Reference for the values: BigSolDB 2.1
